Test system: Escherichia coli TOP10
ASSAY_SUMMARY: shrunken log2 fold change of peptide-encoding DNA abundance (4.5 h post-induction vs induction); higher = less antimicrobial activity (less host growth inhibition)
STUDY_CONDITIONS: time post-induction: 4.5 h; library: site-saturation at positions 5, 18, 19, 20
OBSERVABLE: shrunken log2 fold change

              residue_codes  data_value
 0  RRIRGRPPRLPRPRPRPQGFPRP       0.441
 1  RRIRLRPPRLPRPRPRPKGTPRP      0.0017
 2  RRIRSRPPRLPRPRPRPTVYPRP      0.0113
 3  RRIRVRPPRLPRPRPRPADGPRP    0.000767
 4  RRIRCRPPRLPRPRPRPLEIPRP      -0.164
 5  RRIRRRPPRLPRPRPRPNHEPRP     -0.0399
 6  RRIRIRPPRLPRPRPRPQDTPRP      -0.048
 7  RRIRCRPPRLPRPRPRPTEEPRP       0.325
 8  RRIRDRPPRLPRPRPRPGPKPRP       0.386
 9  RRIRQRPPRLPRPRPRPYRSPRP     -0.0119
10  RRIRRRPPRLPRPRPRPTCGPRP       0.506

----------
System: Escherichia coli TOP10;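 also: peptides expressed intracellularly from a pBAD plasmid library in pooled LB shake-flask culture, induced with 0.3% L-arabinose, DNA abundance read by NGS, three biological replicates, DESeq2 with apeglm shrinkage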
ASSAY_SUMMARY: shrunken log2 fold change of peptide-encoding DNA abundance (4.5 h post-induction vs induction); higher = less antimicrobial activity (less host growth inhibition)
STUDY_CONDITIONS: time post-induction: 4.5 h; library: site-saturation at positions 5, 18, 19, 20
Quick reference for shrunken log2 fold change among some sequences
OBSERVABLE: shrunken log2 fold change

              residue_codes  data_value
 0  RRIRKRPPRLPRPRPRPHPRPRP        1.27
 1  RRIRMRPPRLPRPRPRPPWCPRP       0.831
 2  RRIRLRPPRLPRPRPRPLRWPRP       0.524
 3  RRIRARPPRLPRPRPRPRAIPRP       0.358
 4  RRIRRRPPRLPRPRPRPDAGPRP       0.307
 5  RRIRVRPPRLPRPRPRPITGPRP    -0.00538
 6  RRIRDRPPRLPRPRPRPSVEPRP        1.45
 7  RRIRYRPPRLPRPRPRPGMPPRP      -0.403
 8  RRIRNRPPRLPRPRPRPFWVPRP      0.0863
 9  RRIRTRPPRLPRPRPRPEGIPRP      0.0215
10  RRIRYRPPRLPRPRPRPQFQPRP      -0.718
11  RRIRYRPPRLPRPRPRPAWAPRP       0.253
12  RRIRWRPPRLPRPRPRPGSSPRP     -0.0655
13  RRIRRRPPRLPRPRPRPWKHPRP      -0.167
14  RRIRKRPPRLPRPRPRPVQYPRP       0.071
15  RRIRQRPPRLPRPRPRPWIKPRP     -0.0062
16  RRIRCRPPRLPRPRPRPVRRPRP         1.1
17  RRIRFRPPRLPRPRPRPSYGPRP       -0.37
18  RRIRLRPPRLPRPRPRPHNMPRP      -0.495
19  RRIRMRPPRLPRPRPRPCDQPRP      -0.134
20  RRIRMRPPRLPRPRPRPEPAPRP        3.51
21  RRIRTRPPRLPRPRPRPAHQPRP        3.43
22  RRIRMRPPRLPRPRPRPLFTPRP      -0.171
23  RRIRERPPRLPRPRPRPIKKPRP     0.00021
24  RRIRSRPPRLPRPRPRPIIKPRP        0.18
25  RRIRIRPPRLPRPRPRPHLWPRP      -0.256
26  RRIRQRPPRLPRPRPRPVTPPRP    -0.00477
27  RRIRVRPPRLPRPRPRPDCIPRP      -0.161
28  RRIRIRPPRLPRPRPRPEEPPRP     -0.0444
29  RRIRMRPPRLPRPRPRPYPMPRP      -0.126
30  RRIRVRPPRLPRPRPRPSWHPRP    -0.00555
31  RRIRSRPPRLPRPRPRPTHCPRP        0.36
32  RRIRERPPRLPRPRPRPCGPPRP      -0.131
33  RRIRSRPPRLPRPRPRPPRGPRP       0.638
34  RRIRERPPRLPRPRPRPDLDPRP     -0.0232
35  RRIRFRPPRLPRPRPRPMDFPRP    -0.00674
36  RRIRNRPPRLPRPRPRPSMNPRP      -0.578
37  RRIRFRPPRLPRPRPRPYQLPRP      -0.573
38  RRIRARPPRLPRPRPRPLISPRP     -0.0384
39  RRIRNRPPRLPRPRPRPYCIPRP      -0.177
40  RRIRMRPPRLPRPRPRPAKVPRP       0.303
41  RRIRARPPRLPRPRPRPIKMPRP      0.0129
42  RRIRTRPPRLPRPRPRPAASPRP       0.169
43  RRIRNRPPRLPRPRPRPTQCPRP      -0.093
44  RRIRMRPPRLPRPRPRPWSIPRP     -0.0237
45  RRIRVRPPRLPRPRPRPFAFPRP       -0.38
46  RRIRTRPPRLPRPRPRPFHDPRP      0.0356
47  RRIRLRPPRLPRPRPRPVSRPRP      0.0317
